This collection of values is drawn from ChEMBL document CHEMBL1132147.

Test: Displacement of [3H]idazoxan from imidazoline receptor I-2 of rabbit kidney membranes
Recorded Log Ki for the following compounds
# respond with the number and nothing more

# example entries with known answers
For the compound c1ccc(C2CC2C2=NCCN2)cc1 (stereo in doubt; 4a(+/-)) , what Log Ki is on record?
-6.05

Which Log Ki value is on record for c1ccc(C2CC2C2=NCCN2)cc1 (racemic) ?
-7.64

// returns reported Log Ki for input c1ccc([C@H]2C[C@@H]2C2=NCCN2)cc1
-6.91

Next:
Name the recorded Log Ki for C(=C\c1ccccc1)/C1=NCCN1 .
-8.72

Endpoint output: Log Ki of c1ccc([C@@H]2C[C@H]2C2=NCCN2)cc1 . Value?
-8.22

###

Target: Adrenergic receptor alpha-2 (Rattus norvegicus, UniProt P22086+P19328+P22909)
Experiment: Displacement of [3H]-clonidine from Alpha-2 adrenergic receptor of rat cortex membranes
Format: cell membranes, Membrane
test-readout: Log Ki

Sample c1ccc([C@@H]2C[C@H]2C2=NCCN2)cc1 — what was its Log Ki?
-6.92

GET /values?readout=Log Ki&item= c1ccc(C2CC2C2=NCCN2)cc1 (racemic)
-6.4

Continuing:
For the compound C(=C\c1ccccc1)/C1=NCCN1 [TRACIZOLINE] , what Log Ki is on record?
-4.85

Find the recorded Log Ki belonging to c1ccc([C@H]2C[C@@H]2C2=NCCN2)cc1 and report it.
-6.62

Could you share which Log Ki value was measured for c1ccc(C2CC2C2=NCCN2)cc1 (stereo in doubt; 4a(+/-)) ?
-4.53
